- Tested on: SN12C
- protocol_notes: NCI tumour cell line growth inhibition, 48 h
Calls of active or inactive are those of the source. Rule as the data show it: active = GI50 up to about 1.1 µM and inactive = higher.
Reply using exactly one outcome from active, inactive

compound | label
CC(=O)Oc1c(C)cc2c(c1C)C(C)(C)CN2C(=O)C(C)(C)C | inactive
N=C(N)SCCc1ccccn1 | inactive
CC(CCC=O)CCOCc1ccccc1 (stereo not drawn) | inactive
Clc1ccc(C[P+]2(c3ccccc3)CCCCC2)cc1.[O-][Cl+3]([O-])([O-])[O-] | inactive
Cc1n[nH]c(=O)n1C1CC1 | inactive

Just curious, what result did COC(=O)/C=C1\C(CO[Si](C)(C)C(C)(C)C)OC(n2ccc(=O)[nH]c2=O)C1O (stereo not drawn) get here?
inactive

Just curious, what result did `O=C(Nc1ccccc1)c1cc2c(cc1Cl)Sc1nccn1S2(=O)=O` get here?
inactive

Just curious, what result did `CCOC(=O)CCc1c(C)c2ccc(O)cc2oc1=O` get here?
inactive
